The following compounds are shown together with reported solubility values.
assay: Solubility at 25° C. in organic solvents (Example 15); format: physicochemical; details: chlorobenzene, organic solvent or mixture, clorobenzene, read-out: Solubility in clorobenzene

>>> df
                                   compound       endpoint_value
0  CC(C)(C)OC(=O)n1c2c(c3c1=Nc1ccccc1S3)Sc1ccccc1N=2  5000 to 10000 µg/mL
1  CCCCCCCc1ccc2c(c1)N=c1c(c3c(n1C(=O)OC(C)(C)C)=Nc1cc(CCCCCCC)ccc1S3)S2        > 10000 µg/mL

Retrieve solubility measured for `CCCCCCCCCCCCc1ccc2c(c1)N=c1c(c3c(n1C(=O)OC(C)(C)C)=Nc1cc(CCCCCCCCCCCC)ccc1S3)S2` and print it.
> 10000 µg/mL

Retrieve solubility measured for c1ccc2c(c1)N=c1[nH]c3c(c1S2)Sc1ccccc1N=3 [Compound 2a, reference compound] and print it.
< 1000 µg/mL

----------
assay: Solubility at 25° C. in organic solvents (Example 15); format: physicochemical; details: organic solvent or mixture, DMF, read-out: Solubility in DMF
endpoint name: solubility

Here are 3 molecules together with their reported answers.
>>> print(df.to_string())
                                   molecule  endpoint_name      endpoint_value
0  CCCCCCCc1ccc2c(c1)N=c1c(c3c(n1C(=O)OC(C)(C)C)=Nc1cc(CCCCCCC)ccc1S3)S2 [Compound 1c]     solubility        < 1000 µg/mL
1  CC(C)(C)OC(=O)n1c2c(c3c1=Nc1ccccc1S3)Sc1ccccc1N=2 [Compound 1a]     solubility  1000 to 5000 µg/mL
2  CCCCCCCCCCCCc1ccc2c(c1)N=c1c(c3c(n1C(=O)OC(C)(C)C)=Nc1cc(CCCCCCCCCCCC)ccc1S3)S2 [Compound 1d]     solubility       > 10000 µg/mL

Retrieve solubility measured for c1ccc2c(c1)N=c1[nH]c3c(c1S2)Sc1ccccc1N=3 [Compound 2a, reference compound] and print it.
< 1000 µg/mL

----------
assay: Solubility at 25° C. in organic solvents (Example 15); assay type: physicochemical; details: organic solvent or mixture, THF, read-out: Solubility in THF
endpoint name: solubility

In [3]: df
Out[3]:
                                   compound  endpoint_value
0  c1ccc2c(c1)N=c1[nH]c3c(c1S2)Sc1ccccc1N=3 [Compound 2a, reference compound]    < 1000 µg/mL
1  CCCCCCCc1ccc2c(c1)N=c1c(c3c(n1C(=O)OC(C)(C)C)=Nc1cc(CCCCCCC)ccc1S3)S2   > 10000 µg/mL
2  CCCCCCCCCCCCc1ccc2c(c1)N=c1c(c3c(n1C(=O)OC(C)(C)C)=Nc1cc(CCCCCCCCCCCC)ccc1S3)S2   > 10000 µg/mL

Next, consider the following compound.
Retrieve solubility measured for `CC(C)(C)OC(=O)n1c2c(c3c1=Nc1ccccc1S3)Sc1ccccc1N=2` and print it.
1000 to 5000 µg/mL

----------
experiment: Solubility at 25° C. in organic solvents (Example 15); assay type: physicochemical; conditions: organic solvent or mixture, CHCl3, read-out: Solubility in CHCl3
endpoint name: solubility

Here are 2 compounds together with their reported answers.
                                   compound  endpoint_value
0  c1ccc2c(c1)N=c1[nH]c3c(c1S2)Sc1ccccc1N=3 [Compound 2a, reference compound]       < 1 mg/mL
1  CCCCCCCCCCCCc1ccc2c(c1)N=c1c(c3c(n1C(=O)OC(C)(C)C)=Nc1cc(CCCCCCCCCCCC)ccc1S3)S2 [Compound 1d]      > 10 mg/mL

Retrieve solubility measured for CC(C)(C)OC(=O)n1c2c(c3c1=Nc1ccccc1S3)Sc1ccccc1N=2 [Compound 1a] and print it.
5 to 10 mg/mL

Retrieve solubility measured for CCCCCCCc1ccc2c(c1)N=c1c(c3c(n1C(=O)OC(C)(C)C)=Nc1cc(CCCCCCC)ccc1S3)S2 [Compound 1c] and print it.
> 10 mg/mL

// data source = patent US10079346B2
